src = ChEMBL document CHEMBL2407048

tested on: K562; assay: Cytotoxicity against human K562 cells assessed as growth inhibition after 48 hrs by MTT assay; type: functional, cell-based; conditions: K562, 48 h
pIC50: −log10 of the molar value.
quantity.kind: pIC50

In [3]: df
Out[3]:
                                    compound  value_qualifier   val
 0        COc1ccc2nc3ccccc3c(NCc3ccccc3)c2c1                =  6.27
 1          c1ccc(CNc2c3ccccc3nc3ccccc23)cc1                =  5.28
 2   COc1ccc2nc3cc(Cl)ccc3c(NCCc3ccccc3)c2c1                =  6.19
 3  Cc1ccc(NC(=O)c2ccc(CN3CCN(C)CC3)cc2)cc1Nc1nccc(-c2cccnc2)n1 [IMATINIB]                =  6.33
 4         Cc1cccc2c(NCc3ccccc3)c3ccccc3nc12                =  5.31
 5    COc1ccc2nc3cc(Cl)ccc3c(NCc3ccccc3)c2c1                =  6.19
 6        O=C(Nc1c2ccccc2nc2ccccc12)c1ccccc1                <  4.30
 7        Clc1ccc2c(NCc3ccccc3)c3ccccc3nc2c1                =  5.03
 8  COc1ccc2nc3cc(Cl)ccc3c(NCCCc3ccccc3)c2c1                =  5.66
 9          c1ccc(COc2c3ccccc3nc3ccccc23)cc1                <  4.30
10  COc1cc(C)c2nc3cc(Cl)ccc3c(NCc3ccccc3)c2c1                =  5.51

---

system: DNA; assay: Binding affinity to calf thymus DNA by fluorescence spectroscopic analysis; assay type: nucleic-acid assay; conditions: Bos taurus
Attribute: Kq
quantity.kind: Kq (×10⁵ /M)

                                   compound  target_entity   val
0    COc1ccc2nc3cc(Cl)ccc3c(NCc3ccccc3)c2c1            DNA  1.97
1  COc1cc(C)c2nc3cc(Cl)ccc3c(NCc3ccccc3)c2c1            DNA  1.11
2  COc1ccc2nc3cc(Cl)ccc3c(NCCCc3ccccc3)c2c1            DNA  1.05
3        COc1ccc2nc3ccccc3c(NCc3ccccc3)c2c1            DNA   3.5
4   COc1ccc2nc3cc(Cl)ccc3c(NCCc3ccccc3)c2c1            DNA  1.19

---

Attribute: Kq
system: DNA; assay: Binding affinity to calf thymus DNA by fluorescence spectroscopic analysis; format: nucleic-acid assay; conditions: Bos taurus
quantity.kind: Kq (×10⁴ /M)

In [3]: df
Out[3]:
                             compound  quantity_kind  value_qualifier   val
0  Clc1ccc2c(NCc3ccccc3)c3ccccc3nc2c1             Kq                =  1.33
1    c1ccc(COc2c3ccccc3nc3ccccc23)cc1             Kq                <     1
2    c1ccc(CNc2c3ccccc3nc3ccccc23)cc1             Kq                =  3.71
3   Cc1cccc2c(NCc3ccccc3)c3ccccc3nc12             Kq                =  6.22
4  O=C(Nc1c2ccccc2nc2ccccc12)c1ccccc1             Kq                <     1
